biological target: IGF-1 (human, UniProt P05019); assay: competition phage ELISA
Sequence (P05019 49-118): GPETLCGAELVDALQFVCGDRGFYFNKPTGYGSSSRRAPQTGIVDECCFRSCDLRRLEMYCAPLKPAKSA
pIC50: −log10 of the molar value.
Label Satisfied when pIC50 >= 6; otherwise Not satisfied.

Check out these entries, answers already filled in.
FECLTSVEALRGCMY [F1-F] :: Satisfied
LRCAEDLGGYFYCWA [F2-J] :: Not satisfied
LGCASDLAGFWYCWA [F2-E] :: Satisfied
FRCAWELGWLYVLGL [F2-F] :: Not satisfied
WRCVDDLGGFQYCWA [F2-H] :: Satisfied

# bool: pIC50 of ARCARDAGGFYYCWA [F2-L] >= 6
Not satisfied

# bool: pIC50 of HPCLESVGALKACMY [F1-A] >= 6
Satisfied

# bool: pIC50 of MDCLASVEALKWCMY [F1-H] >= 6
Satisfied

# bool: pIC50 of HDCFASVEALRRCMY [F1-D] >= 6
Satisfied

# bool: pIC50 of FGCYESVAALRTCMY [F1-B] >= 6
Satisfied
